The reported numbers originate from ChEMBL document CHEMBL3797101.

- SUBJECT OF TEST: D(3) dopamine receptor (Homo sapiens)
- Sequence (P35462 whole entry): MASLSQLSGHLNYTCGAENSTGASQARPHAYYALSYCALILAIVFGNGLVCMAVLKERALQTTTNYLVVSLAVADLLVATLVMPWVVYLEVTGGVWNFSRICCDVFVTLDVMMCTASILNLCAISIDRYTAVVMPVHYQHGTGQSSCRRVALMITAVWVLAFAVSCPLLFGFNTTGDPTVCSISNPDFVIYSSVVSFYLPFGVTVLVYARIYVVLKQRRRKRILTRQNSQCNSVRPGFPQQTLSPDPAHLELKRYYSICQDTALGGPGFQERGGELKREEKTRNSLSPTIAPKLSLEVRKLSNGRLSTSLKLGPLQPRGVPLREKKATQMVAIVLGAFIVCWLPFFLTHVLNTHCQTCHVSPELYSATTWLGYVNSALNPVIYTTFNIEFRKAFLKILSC
- MEASUREMENT NOTES: Agonist activity at human dopamine D3 receptor expressed in CHOK1 cells assessed as cAMP levels preincubated for 10 mins followed by addition of adenylyl cyclase activator NKH 477 measured after 45 mins by HTRF functional assay relative to dopamine
- Assay type: cell-based
- STUDY CONDITIONS: CHO-K1
# cutoff 40% applies to Efficacy; >= gives y, < gives n

Before answering, review these 5 worked examples.
>  <INPUT SMILES>
COc1ccccc1N1CCN(CCCCNC(=O)Oc2cccc3ccccc23)CC1

>  <QUALITATIVE LABEL>
n

$$$$
>  <INPUT SMILES>
O=C(NCCCCN1CCN(c2cccc(Cl)c2Cl)CC1)Oc1cccc2c1CCCC2

>  <QUALITATIVE LABEL>
y

$$$$
>  <INPUT SMILES>
Cl.O=C(NCCCCN1CCN(c2cccc(Cl)c2Cl)CC1)Oc1cccc2[nH]cnc12

>  <QUALITATIVE LABEL>
y

$$$$
>  <INPUT SMILES>
Cl.NC(=O)c1ccc(OC(=O)NCCCCN2CCN(c3cccc(Cl)c3Cl)CC2)c2ccccc12

>  <QUALITATIVE LABEL>
y

$$$$
>  <INPUT SMILES>
O=C(NCCCCN1CCN(c2cccc(Cl)c2Cl)CC1)Oc1ccccc1

>  <QUALITATIVE LABEL>
y

$$$$

Given the entry Cl.O=C(NCCCCN1CCN(c2ccccc2C(F)(F)F)CC1)Oc1cccc2ccccc12 , answer whether its Efficacy meets or surpasses 40%. n

###

- MEASUREMENT NOTES: Aqueous kinetic solubility of the compound in PBS at pH 7.4 at 37 degC after 24 hrs by UPLC/MS method
- Assay type: physicochemical
- STUDY CONDITIONS: read-out: Kinetic_solubility
Recorded solubility kinetic at 24 h by entry

Examples from the recorded data:
>  <MOLECULE>
O=C(NCCCCN1CCN(c2cccc(Cl)c2Cl)CC1)OC1CCCc2ccccc21 (stereo not drawn)

>  <REPORTED ENDPOINT>
solubility kinetic at 24 h

>  <RESULT>
< 1 µM

$$$$
>  <MOLECULE>
Cl.O=C(NCCCCN1CCN(c2cccc(Cl)c2Cl)CC1)Oc1ccc(F)c2ccccc12

>  <REPORTED ENDPOINT>
solubility kinetic at 24 h

>  <RESULT>
< 1 µM

$$$$

// below: solubility kinetic at 24 h requested for another molecule
response.value for O=C(NCCCCN1CCN(c2cccc(Cl)c2Cl)CC1)Oc1cccc2ccccc12 (field: solubility kinetic at 24 h) = < 1 µM
